Here's what we have: pIC50 numbers for Glutathionylspermidine synthase (Crithidia fasciculata).
Numbered stars: 1 amine (or outer) side, 2 acyl side, 3 side chain; on linkers, the order of the positions; unused ones are H or OH. Square brackets hold non-standard residues; d marks the D form. Peptide text beside a SMILES is read from it. γGlu = O=C(O)[C@H](CCC(=O)[*:2])N[*:1]; Orn = NCCC[C@H](N)C(=O)O; Dap = NC[C@H](N)C(=O)O
Entry type: numeric. Quantity: pIC50, the -log10 of concentration in molar units.

pIC50 in this record for CC(C)C[C@H](NC(=O)CC[C@H](N)C(=O)O)C(=O)N[C@@H](CO)C(=O)O (γGlu-Leu-Ser-OH) : 4.93

The recorded pIC50 for entry CC(C)C[C@H](NC(=O)CC[C@H](N)C(=O)O)C(=O)N[C@@H](CN)C(=O)O (γGlu-Leu-[Dap]-OH) equals 5.04

For this compound ( CC(C)C[C@H](NC(=O)CC[C@H](N)C(=O)O)C(=O)N[C@@H](CCCN)C(=O)O (γGlu-Leu-[Orn]-OH) ), measured pIC50 is 4.99
